The origin of these recorded values is patent US20200062863A1.

For each record, write down the corresponding % Inhibition, ratio FXIIa-alpha:Antibody 1:10.
- TEST_SYSTEM: T1, human Factor XIIa-alpha (human, UniProt P00748 20-615)
- T1 sequence: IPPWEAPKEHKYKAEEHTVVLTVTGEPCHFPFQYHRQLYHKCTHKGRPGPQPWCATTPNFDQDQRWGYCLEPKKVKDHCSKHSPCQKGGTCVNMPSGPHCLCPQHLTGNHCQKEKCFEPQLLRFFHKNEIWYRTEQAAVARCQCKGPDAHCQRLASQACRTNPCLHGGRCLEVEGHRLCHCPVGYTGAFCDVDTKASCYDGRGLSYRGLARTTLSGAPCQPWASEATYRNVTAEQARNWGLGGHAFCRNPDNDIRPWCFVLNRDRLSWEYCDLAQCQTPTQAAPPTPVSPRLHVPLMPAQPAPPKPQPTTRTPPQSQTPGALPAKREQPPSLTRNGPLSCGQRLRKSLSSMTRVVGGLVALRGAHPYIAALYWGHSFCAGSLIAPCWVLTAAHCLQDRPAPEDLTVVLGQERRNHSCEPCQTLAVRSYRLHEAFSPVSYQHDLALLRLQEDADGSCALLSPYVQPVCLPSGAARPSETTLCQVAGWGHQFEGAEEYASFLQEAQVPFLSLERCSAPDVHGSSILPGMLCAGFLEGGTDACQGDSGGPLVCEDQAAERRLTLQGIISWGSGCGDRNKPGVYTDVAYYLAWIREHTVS
- MEASUREMENT_NOTES: cell-based or functional assay
Write the quantity with the unit trailing the number.

Exam item: Answer with reported % Inhibition, ratio FXIIa-alpha:Antibody 1:10 of VR115 (antibody, V domains shown) VH: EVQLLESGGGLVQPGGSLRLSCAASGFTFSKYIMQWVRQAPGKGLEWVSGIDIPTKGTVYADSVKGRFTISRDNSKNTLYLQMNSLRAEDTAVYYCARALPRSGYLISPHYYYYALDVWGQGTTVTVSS VL: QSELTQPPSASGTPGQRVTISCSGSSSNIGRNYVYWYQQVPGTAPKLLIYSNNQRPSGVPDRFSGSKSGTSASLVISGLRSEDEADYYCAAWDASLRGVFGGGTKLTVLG
Marked response: 100%

Exam item: Answer with reported % Inhibition, ratio FXIIa-alpha:Antibody 1:10 of VR112 (antibody, V domains shown) VH: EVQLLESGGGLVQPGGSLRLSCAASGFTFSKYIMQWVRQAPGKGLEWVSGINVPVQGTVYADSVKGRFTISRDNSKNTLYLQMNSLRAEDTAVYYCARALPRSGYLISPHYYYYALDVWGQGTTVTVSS VL: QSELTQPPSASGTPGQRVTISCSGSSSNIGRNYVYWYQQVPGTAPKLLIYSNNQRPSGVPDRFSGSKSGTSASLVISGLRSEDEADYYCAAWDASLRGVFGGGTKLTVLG
Marked response: 100%

Exam item: Answer with reported % Inhibition, ratio FXIIa-alpha:Antibody 1:10 of VR110 (antibody, V domains shown) VH: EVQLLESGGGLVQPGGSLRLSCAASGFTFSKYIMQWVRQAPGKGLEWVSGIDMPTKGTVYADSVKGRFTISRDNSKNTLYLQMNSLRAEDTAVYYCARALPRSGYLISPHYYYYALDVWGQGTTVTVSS VL: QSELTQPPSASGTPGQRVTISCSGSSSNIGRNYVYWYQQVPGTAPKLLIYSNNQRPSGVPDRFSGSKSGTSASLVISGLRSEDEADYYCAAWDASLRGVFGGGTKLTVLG
Marked response: 100%
